B1: FAM107A (parent)
chain: HRRGLGVDSKPELQRVLEHRRRNQ

- Variants of: B1
- protocol notes: protein stability index of a GFP-peptide fusion (GPS, HEK-293T) (PSI 1-6); higher = more stable;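 further: lentivirally expressed fusions sorted by FACS into six bins by GFP to DsRed ratio, PSI derived from sequencing read proportions per bin multiplied by bin number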
- recorded conditions: c terminus: a fixed tail appended
Label rule, in plain words: protein stability index of 4 and up is Y, under 4 is N.

[
  {
    "changes": "E12W",
    "label class": "N"
  },
  {
    "changes": "L17I",
    "label class": "Y"
  },
  {
    "changes": "E18G",
    "label class": "N"
  },
  {
    "changes": "R20P",
    "label class": "Y"
  },
  {
    "changes": "R21W",
    "label class": "N"
  },
  {
    "changes": "R22Q",
    "label class": "N"
  },
  {
    "changes": "R3P",
    "label class": "Y"
  },
  {
    "changes": "S9G",
    "label class": "Y"
  },
  {
    "changes": "E18T",
    "label class": "N"
  },
  {
    "changes": "V16F",
    "label class": "Y"
  },
  {
    "changes": "H1A",
    "label class": "N"
  },
  {
    "changes": "R2E",
    "label class": "Y"
  },
  {
    "changes": "V16G",
    "label class": "Y"
  },
  {
    "changes": "D8S",
    "label class": "N"
  },
  {
    "changes": "R20C",
    "label class": "Y"
  },
  {
    "changes": "R21H",
    "label class": "Y"
  },
  {
    "changes": "R15A",
    "label class": "Y"
  },
  {
    "changes": "N23H",
    "label class": "N"
  },
  {
    "changes": "Q24W",
    "label class": "N"
  },
  {
    "changes": "P11Y",
    "label class": "N"
  },
  {
    "changes": "G4A",
    "label class": "N"
  },
  {
    "changes": "R2P",
    "label class": "Y"
  },
  {
    "changes": "L17D",
    "label class": "Y"
  },
  {
    "changes": "R21C",
    "label class": "N"
  },
  {
    "changes": "R20Y",
    "label class": "N"
  },
  {
    "changes": "V7M",
    "label class": "N"
  },
  {
    "changes": "V7K",
    "label class": "Y"
  },
  {
    "changes": "G4V",
    "label class": "Y"
  },
  {
    "changes": "L5V",
    "label class": "N"
  },
  {
    "changes": "R15W",
    "label class": "N"
  },
  {
    "changes": "Q24M",
    "label class": "N"
  },
  {
    "changes": "R20A",
    "label class": "N"
  },
  {
    "changes": "G4E",
    "label class": "Y"
  },
  {
    "changes": "N23L",
    "label class": "N"
  },
  {
    "changes": "G4H",
    "label class": "Y"
  },
  {
    "changes": "R21K",
    "label class": "Y"
  },
  {
    "changes": "S9P",
    "label class": "Y"
  },
  {
    "changes": "S9M",
    "label class": "Y"
  },
  {
    "changes": "Q24E",
    "label class": "Y"
  },
  {
    "changes": "L13Y",
    "label class": "Y"
  },
  {
    "changes": "R15T",
    "label class": "Y"
  },
  {
    "changes": "L13K",
    "label class": "Y"
  },
  {
    "changes": "V16K",
    "label class": "Y"
  }
]
